Value source: PubChem BioAssay (NCATS)

Test system: Es-2
testSummary: Primary qHTS to identify gynecologic anti-cancer compounds using libraries of approved drugs and bioactive compounds (AID 1345084); also: % is scaled to controls: 0 for no effect and ±100 for the full control effect; nearly all actives have a fitted effect of over 55% in size
assaySetup: Gynecologic cancer cell panel viability, ATPlite luminescence, 48 h; series mostly up to 57.5 µM
Results filed as inconclusive are left out. Activity calls are given as the source filed them. Calls follow the shape of the dose curve; as a rule, active = well fitted cell-killing curve with a large enough effect; inconclusive = small, poorly fitted or top-dose-only effect, or effect the other way; inactive = flat fitted curve, though single readings scatter.
The following compounds are shown together with reported activity change, negative = cytotoxicity values.

# compound, reportedResult
measured = [
    ("CC(=O)OC1CC(C)(C(=O)O)CC2C3=CC(=O)C4C5(C)CCC(OC6OC(C(=O)O)C(O)C(O)C6OC6OC(C(=O)O)C(O)C(O)C6O)C(C)(C)C5CCC4(C)C3(C)CCC12C (stereo not drawn)", "12.5% [at 11.6 µM] (inactive)"),
]

# activity change, negative = cytotoxicity lookup, item `COc1ccc(CN2CCN(CCCSc3cc(C(C)(C)C)c(O)c(C(C)(C)C)c3)CC2)c(OC)c1OC`
12.2% [at 11.6 µM] (inactive)

// lookup activity change, negative = cytotoxicity for CCC/C=C/C(=O)O[C@H]1CC(C)(C)CC2[C@@]13[C@H](O)C[C@]1(C)[C@@]2(CCC2[C@@]4(C)CC[C@H](O[C@@H]5O[C@H](C(=O)O)[C@@H](O)[C@H](O[C@@H]6O[C@H](CO)[C@H](O)[C@H](O)[C@H]6O[C@@H]6O[C@@H](C)[C@H](O)[C@@H](O)[C@H]6O[C@@H]6OC[C@](O)(CO)[C@H]6O)[C@H]5O[C@@H]5O[C@H](CO)[C@H](O)[C@H](O)[C@H]5O)C(C)(C)C4CC[C@]21C)O[C@H]3O (stereo partly drawn)
3.48% [at 6.55 µM] (inactive)

Which value of activity change, negative = cytotoxicity has been reported for `CC(C)NC(=O)N1CC[C@H](N=C2Nc3cc(F)ccc3N(CC(F)F)c3ccc(Cl)cc32)C1` in the records?
5.14% [at 11.6 µM] (inactive)

I am curious: what activity change, negative = cytotoxicity value has been reported for `COc1c(C)cc(NC(=O)c2nn(Cc3ccc(F)cc3)c3c2CN(C(=O)c2ccc[nH]2)C[C@]3(C)C(N)=O)cc1C` ?
4.64% [at 11.6 µM] (inactive)

Query: activity change, negative = cytotoxicity; subject: C[C@@H]1O[C@@H](O[C@H]2[C@H](O[C@H]3CC[C@@]4(C)C(CC[C@]5(C)C4C=C[C@]46OC[C@@]7(CCC(C)(C)C[C@H]74)[C@@H](O[C@@H]4O[C@@H](C)[C@H](O)[C@@H](O)[C@H]4O)C[C@]65C)[C@]3(C)CO)O[C@H](CO)[C@@H](O)[C@@H]2O[C@@H]2O[C@H](CO)[C@@H](O)[C@H](O)[C@H]2O)[C@H](O)[C@H](O)[C@H]1O (stereo partly drawn)
-13.3% [at 11.6 µM] (inactive)

Item under review: CC(=O)O[C@@H]1[C@@H](O)[C@H](O[C@@H]2[C@@H](O)[C@@H](O)[C@H](O[C@H]3[C@H](O[C@H]4[C@H](O[C@H]5CC[C@@]6(C)C(CC[C@]7(C)C6CC=C6[C@@H]8CC(C)(C)CC[C@]8(C(=O)O)CC[C@]67C)[C@]5(C)CO)O[C@H](CO)[C@@H](O)[C@@H]4O)OC[C@@H](O)[C@@H]3O)O[C@H]2C)OC[C@H]1O (stereo partly drawn) . Reported activity change, negative = cytotoxicity?
-1.31% [at 11.6 µM] (inactive)

Which activity change, negative = cytotoxicity is reported for this compound? CC1(C)CC[C@]2(C(=O)O)[C@H](O)C[C@]3(C)C(=CCC4[C@@]5(C)CC[C@H](O[C@@H]6O[C@H](CO[C@@H]7OC[C@H](O)[C@H](O)[C@H]7O[C@@H]7OC[C@H](O)[C@H](O)[C@H]7O)[C@@H](O)[C@H](O)[C@H]6O)C(C)(C)C5CC[C@]43C)[C@@H]2C1 (stereo partly drawn)
-0.336% [at 11.6 µM] (inactive)
